- systemTested: UniProt P31645
Assignment: determine reported pKi for the given molecules.
A value of pKi is the negative decimal logarithm of a concentration given in moles per litre.

Lookup result for COc1cc2c(cc1OC)C1=NOC(CN3CCN(Cc4ccc5ncccc5c4)CC3)C1CO2 (stereo unspecified) ; measured pKi: 8.09

Lookup result for COc1cc2c(cc1OC)C1=NOC(CN3CCN(Cc4cccc5ccccc45)CC3)C1CO2 (stereo unspecified) ; measured pKi: 8.41

Lookup result for COc1cc2c(cc1OC)C1=NO[C@@H](CN3CCN(C/C=C/c4ccccc4)CC3)[C@@H]1CO2 (stereo in doubt; (-)5) ; measured pKi: 8.47

Lookup result for COc1cc2c(cc1OC)C1=NOC(CN3CCN(C/C=C/c4ccccc4)CC3)C1CO2 (stereo unspecified) ; measured pKi: 8.08

Lookup result for `COc1cc2c(cc1OC)C1=NO[C@@H](CN3CCN(C/C=C\c4ccccc4)CC3)[C@@H]1CO2` ; measured pKi: 7.46

Lookup result for COc1cc2c(cc1OC)C1=NOC(CN3CCN(CCC(=O)c4ccccc4)CC3)C1CO2 (stereo unspecified) ; measured pKi: 6.91

Lookup result for COc1cc2c(cc1OC)C1=NOC(CN3CCN(Cc4ccccc4)CC3)C1CO2 (stereo unspecified) ; measured pKi: 6.80

Lookup result for COc1cc2c(cc1OC)C1=NOC(CN3CCN(C/C=C(\C)c4ccccc4)CC3)C1CO2 (stereo unspecified) ; measured pKi: 8.00

Lookup result for COc1ccc2c(c1)C1=NOC(CN3CCN(C/C=C/c4ccccc4)CC3)C1CO2 (stereo unspecified) ; measured pKi: 7.85

Lookup result for COc1cc2c(cc1OC)C1=NOC(CN3CCN(Cc4cc5ccccc5s4)CC3)C1CO2 (stereo unspecified) ; measured pKi: 8.30

Lookup result for COc1cc2c(cc1OC)C1=NOC(CN3CCN(CC4=Cc5ccccc5C4)CC3)C1CO2 (stereo unspecified) ; measured pKi: 8.39

---

Assignment: determine reported Ki for the given compounds.
Numbers only; they are read as nM.

The recorded Ki with Sodium-dependent serotonin transporter (Homo sapiens) (UniProt P31645) for COc1cc2c(cc1OC)C1=NOC(CN3CCN(Cc4csc5ccccc45)CC3)C1CO2 (stereo not drawn) was 7.2

The recorded Ki with Sodium-dependent serotonin transporter (Homo sapiens) (UniProt P31645) for COc1cc2c(cc1OC)C1=NOC(CN3CCN(Cc4cnc5ccccc5c4)CC3)C1CO2 (stereo not drawn) was 14

The recorded Ki with Sodium-dependent serotonin transporter (Homo sapiens) (UniProt P31645) for COc1ccc2c(c1)OCC1C2=NOC1CN1CCN(C/C=C/c2ccccc2)CC1 (stereo not drawn) was 19

The recorded Ki with Sodium-dependent serotonin transporter (Homo sapiens) (UniProt P31645) for COc1cc2c(cc1OC)C1=NO[C@@H](CN3CCN(C/C=C(\C)c4ccccc4)CC3)[C@@H]1CO2 (stereo in doubt; (+)15g) was 4.5

The recorded Ki with Sodium-dependent serotonin transporter (Homo sapiens) (UniProt P31645) for COc1cc2c(cc1OC)C1=NOC(CN3CCN(CCCc4ccccc4)CC3)C1CO2 (stereo not drawn) was 10

The recorded Ki with Sodium-dependent serotonin transporter (Homo sapiens) (UniProt P31645) for COc1cc2c(cc1OC)C1=NO[C@@H](CN3CCN(C/C=C/c4ccccc4)CC3)[C@@H]1CO2 (stereo in doubt; (+)5) was 1.2

The recorded Ki with Sodium-dependent serotonin transporter (Homo sapiens) (UniProt P31645) for COc1cc2c(cc1OC)C1=NO[C@@H](CN3CCN(C/C=C(\C)c4ccccc4)CC3)[C@@H]1CO2 (stereo in doubt; (-)15g) was 10

The recorded Ki with Sodium-dependent serotonin transporter (Homo sapiens) (UniProt P31645) for COc1cc2c(cc1OC)C1=NOC(CN3CCN(CCc4ccccc4)CC3)C1CO2 (stereo not drawn) was 199
